// reported inhibition per item
target: Sodium channel protein type 9 subunit alpha (Homo sapiens); experiment: Inhibition of human Nav1.7 channel expressed in HEK cells at 1 uM by FRET assay; type: cell-based; conditions: HEK293

molecule | quantity_unit | inhibition
CC1(c2ccccc2)CC([C@@H]2CCC[C@H]2C(=O)Nc2ccc3ncccc3c2)=NO1 (mixture of isomers) | % | 17
CN(Cc1ccc(-c2ccccc2S(C)(=O)=O)cc1)C(=O)[C@@H]1CCC[C@H]1C1=NOC(C)(c2ccccc2)C1 (mixture of isomers) | % | 0
O=C(NCc1ccc(OC(F)(F)F)cc1)[C@@H]1CCC[C@H]1c1cc(-c2ccc(Cl)cc2)on1 (racemic) | % | 33
COc1ccc(CNC(=O)[C@@H]2CCC[C@H]2C2=NOC(C)(c3ccccc3)C2)cc1 (relative stereo) | % | 16

###

biological target: Sodium channel protein type 9 subunit alpha (Homo sapiens); experiment: Inhibition of human Nav1.7 channel expressed in HEK cells at 1 uM by FRET assay; type: cell-based; details: HEK293
// reported inhibition per item
measurement_type: inhibition

compound | test_result
O=C(NCc1ccc(OC(F)(F)F)cc1)[C@@H]1CCC[C@H]1c1nc(-c2ccccc2)co1 (racemic) | 19%
COC(=O)c1ccc(C2CC([C@@H]3CCC[C@H]3C(=O)NCc3ccc(OC(F)(F)F)cc3)=NO2)cc1 (mixture of isomers) | 87%
CC1(c2ccccc2)CC([C@@H]2CCC[C@H]2C(=O)NCc2ccc(OC(F)(F)F)cc2)=NO1 (relative stereo) | 35%
O=C(NCc1ccc(OC(F)(F)F)cc1)[C@@H]1CCC[C@H]1C1=NC(c2ccc(Cl)cc2)CO1 (mixture of isomers) | 56%

###

biological target: Sodium channel protein type 9 subunit alpha (Homo sapiens, UniProt Q15858); experiment: Inhibition of human Nav1.7 channel expressed in HEK cells at 1 uM by FRET assay; format: cell-based; conditions: HEK293
Sequence (Q15858 whole entry, looked up): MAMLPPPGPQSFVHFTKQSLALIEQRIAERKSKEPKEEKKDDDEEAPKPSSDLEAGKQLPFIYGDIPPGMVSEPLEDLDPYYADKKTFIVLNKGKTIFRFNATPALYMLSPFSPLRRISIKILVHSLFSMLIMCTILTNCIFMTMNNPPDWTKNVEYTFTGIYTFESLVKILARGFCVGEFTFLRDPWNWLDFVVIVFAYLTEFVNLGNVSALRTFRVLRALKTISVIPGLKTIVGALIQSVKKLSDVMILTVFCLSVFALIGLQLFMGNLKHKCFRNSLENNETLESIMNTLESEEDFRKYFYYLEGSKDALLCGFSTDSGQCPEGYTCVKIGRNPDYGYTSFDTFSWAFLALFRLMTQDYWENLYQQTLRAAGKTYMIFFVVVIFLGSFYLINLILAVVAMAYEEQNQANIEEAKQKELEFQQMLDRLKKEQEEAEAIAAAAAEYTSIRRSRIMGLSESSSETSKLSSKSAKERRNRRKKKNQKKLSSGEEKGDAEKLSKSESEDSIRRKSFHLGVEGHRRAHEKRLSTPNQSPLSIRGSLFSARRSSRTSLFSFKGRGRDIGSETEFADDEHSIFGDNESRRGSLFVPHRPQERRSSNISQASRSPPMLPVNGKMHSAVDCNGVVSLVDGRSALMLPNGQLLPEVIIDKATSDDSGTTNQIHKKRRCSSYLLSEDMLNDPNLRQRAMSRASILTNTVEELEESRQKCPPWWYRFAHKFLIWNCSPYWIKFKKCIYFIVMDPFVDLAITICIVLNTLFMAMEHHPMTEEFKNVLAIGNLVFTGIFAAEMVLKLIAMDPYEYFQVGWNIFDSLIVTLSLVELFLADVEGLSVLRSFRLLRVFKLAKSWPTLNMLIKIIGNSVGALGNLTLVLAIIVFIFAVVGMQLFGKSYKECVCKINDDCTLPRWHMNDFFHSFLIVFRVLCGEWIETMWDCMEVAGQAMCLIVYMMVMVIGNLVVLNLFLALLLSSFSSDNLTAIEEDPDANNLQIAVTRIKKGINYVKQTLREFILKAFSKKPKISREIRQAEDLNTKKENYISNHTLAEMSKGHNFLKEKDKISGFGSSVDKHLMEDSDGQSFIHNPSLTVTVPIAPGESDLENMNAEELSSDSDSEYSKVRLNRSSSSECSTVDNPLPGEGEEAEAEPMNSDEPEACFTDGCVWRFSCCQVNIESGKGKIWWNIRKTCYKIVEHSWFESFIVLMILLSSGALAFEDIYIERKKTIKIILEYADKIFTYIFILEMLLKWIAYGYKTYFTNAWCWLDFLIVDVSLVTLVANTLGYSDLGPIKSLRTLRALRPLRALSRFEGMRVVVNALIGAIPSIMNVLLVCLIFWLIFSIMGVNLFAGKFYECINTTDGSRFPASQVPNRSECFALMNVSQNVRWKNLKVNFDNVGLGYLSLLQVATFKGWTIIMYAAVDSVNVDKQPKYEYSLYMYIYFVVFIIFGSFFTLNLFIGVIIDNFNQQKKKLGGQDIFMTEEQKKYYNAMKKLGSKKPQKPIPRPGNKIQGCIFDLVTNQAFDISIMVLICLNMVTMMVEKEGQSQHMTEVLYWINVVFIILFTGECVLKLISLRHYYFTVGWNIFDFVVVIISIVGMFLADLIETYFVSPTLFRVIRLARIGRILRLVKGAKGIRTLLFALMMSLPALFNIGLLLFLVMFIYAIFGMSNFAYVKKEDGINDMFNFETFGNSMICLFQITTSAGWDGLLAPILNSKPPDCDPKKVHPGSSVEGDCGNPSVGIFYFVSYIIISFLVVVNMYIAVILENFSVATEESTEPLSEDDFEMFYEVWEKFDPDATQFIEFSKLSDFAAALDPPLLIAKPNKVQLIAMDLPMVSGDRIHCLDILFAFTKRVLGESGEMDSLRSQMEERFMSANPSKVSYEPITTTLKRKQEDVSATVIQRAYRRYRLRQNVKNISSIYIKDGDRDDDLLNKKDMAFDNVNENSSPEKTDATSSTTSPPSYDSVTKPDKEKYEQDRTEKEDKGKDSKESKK

molecule | quantity_unit | inhibition
CC1(c2ccccc2)CC([C@@H]2CCC[C@H]2C(=O)NCc2ccc(OC(F)(F)F)cc2)=NO1 (single isomer, unassigned; diastereomer a) | % | 64
CC1(c2ccccc2)CC([C@@H]2CCC[C@H]2C(=O)Nc2ccc(OC(F)(F)F)cc2)=NO1 (mixture of isomers) | % | 30
O=C(O)c1ccc(C2CC([C@@H]3CCC[C@H]3C(=O)NCc3ccc(OC(F)(F)F)cc3)=NO2)cc1 (mixture of isomers) | % | 0
